A collection of compounds and their measured TGI
System: SK-MEL-5 melanoma
Assay: NCI tumour cell line growth inhibition, 48 h
measurement label: TGI (µM)

compound | readout relation | quantitative readout
Cc1ccc(-c2c3c(nn2-c2ccc(S(N)(=O)=O)cc2)-c2ccccc2C3)cc1 | = | 5.76
O=C(O)C1CCCCC1c1c2ccc(=O)c(O)c-2oc2c(O)c(O)ccc12 (stereo not given) | > | 100
CCOC(=O)C(CC(C)C)NC(=O)CSc1nnc(COc2ccc(Cl)cc2)n1-c1ccccc1 (stereo not given) | = | 32.6
Cc1ccc2c(=O)c(C(=O)Nn3c(C)csc3=S)c[nH]c2n1 | > | 100
Cc1cc(-c2ccccc2)nc(Nc2nc3ccccc3o2)n1 | > | 100

---

Test system: RPMI-8226 leukemia
Assay: NCI tumour cell line growth inhibition, 48 h
TGI: recorded values

compound | readout relation | TGI, µM
COP(=O)(OC)C(NC(=O)C(F)(F)F)(c1ccccc1)C(F)(F)F (stereo not drawn) | > | 100
CCOc1cc(Br)c(C(C)NC(=O)c2cccc(OC)c2)cc1OCC (stereo not drawn) | > | 92.1
O=C(O)C[C@@H]1[C@@H](O)[C@@H](O)CN2C(=O)c3ccccc3[C@H]12 | > | 100
Cc1ccc(NC(=O)C2C(=O)N(c3ccc(C)c(C)c3)C(=O)/C2=N\NC(N)=O)cc1C (stereo not drawn) | > | 100
S=C(Nc1ccc(N=Nc2ccccc2)cc1)SCc1ccccc1 | = | 33.3
CSc1cc(-c2ccccn2)nc(-c2ccccn2)c1 | > | 100
C=CC(OC(C)=O)c1ccc(OC(=O)C(C)C)c(OC)c1 (stereo not drawn) | = | 4.28
Cc1cn(C2C=CC(CO)O2)c(=O)[nH]c1=O (stereo not drawn) | > | 1000
O=C(O)c1cn(C2CC2)c2cc(N3CCN(C(=O)Nc4nc(-c5ccccc5)cs4)CC3)c(F)cc2c1=O | = | 7.41
CCOC(=O)c1c(-c2ccc(Cl)cc2)c(C#N)c(=S)n(C2OC(COC(C)=O)C(OC(C)=O)C(OC(C)=O)C2OC(C)=O)c1-c1ccccc1 (stereo not drawn) | > | 100
COC1=C(C)C(=O)c2c(c(CCCl)c3n2CCC3O)C1=O (stereo not drawn) | = | 21.8
O=c1cc(-c2c[nH]c3ccccc23)[nH]c2cc3c(cc12)OCO3 | > | 100
COc1cccc(/C=N/NC(=S)NC2CC3CCC2C3)c1O (stereo not drawn) | = | 49.7
CSC1C(=O)Nc2ccc3ccccc3c21 (stereo not drawn) | = | 60.7
COC(=O)/C=C\C(C#N)(C#N)N=Cc1ccccc1 | = | 2.88
FC(F)(F)c1ccc(-c2cnc(-n3cc(COCCN4CCCCC4)nn3)nc2NC2CCCCCC2)cc1 | = | 9.03
O=C(c1ccccc1)n1cc(-c2ccccc2)c2c(=O)[nH]cnc21 | > | 100
CCOC(=O)c1c(Br)c(-c2ccc(OC)cc2)c(Br)n1C | > | 100
COc1cc2cc(C(=O)N3CC(CCl)c4c3cc(NC(=O)OCc3ccc([N+](=O)[O-])cc3)c3ccccc43)[nH]c2c(OC)c1OC (stereo not drawn) | > | 100
COc1cccc(-c2ccc3c(c2)C2CCN(Cc4ccccc4)C3C2)c1 (stereo not drawn) | = | 23.6
COC(=O)C1OC2(CCCC3CC32)O[C@H]1C(=O)OC (stereo partly drawn) | > | 100
COc1ccc2c(c1)CC[C@@H]1[C@@H]2CC[C@]2(C)[C@@H](NC(=O)/C=C/c3ccc(O)c(O)c3)CC[C@@H]12 | = | 9.79
O=[N+]([O-])c1ccc(Oc2nc(Nc3ccc(O[C@H]4CO[C@H]5[C@@H]4OC[C@@H]5O)c(Cl)c3)ncc2F)c(Cl)c1 | = | 2.56
O=C1c2ccccc2C(=O)c2c(O)c(NCCCNCCO)cc(O)c21 | = | 25.5
COC(=O)C(=CNC(N)=O)C(=O)OC | > | 100
O=[N+]([O-])c1ccc(Cl)c(C2CC(c3cccc4ccccc34)=Nc3ccccc3S2)c1 (stereo not drawn) | > | 47.5
COc1ccc(/C=C/C(=O)c2cc(C(C)(C)C)c(O)c(C(C)(C)C)c2)cc1OC | = | 12.8
CN(Cc1cccc(F)c1)c1ccc(CO)c(Cl)c1 | > | 68.3
COC(=O)CCC1CCc2c(OC)ccc(OC)c2C1=O (stereo not drawn) | > | 100
CCOc1ccc2c(c1)[n+]([O-])c(-c1ccc(Br)cc1)c(N)[n+]2[O-] | > | 100
CN(C)c1ccc(C=C2C(=O)N(c3ccccc3)N(c3ccccc3)C2=O)cc1 | > | 100
CCOP(=O)(OCC)C(c1ccccc1)N(C(=O)NC(F)(F)F)c1cccc(F)c1 (stereo not drawn) | > | 100
N#Cc1c(Br)n(C2OC(CO)C(O)C2O)c2ncnc(N)c12 (stereo not drawn) | = | 6.69
COC(OC)C1OCC(n2cc(F)c(=O)[nH]c2=O)C1O (stereo not drawn) | > | 100
COc1ccc(/C=c2\sc3n(c2=O)C2C(NN=3)N(C)C(=O)N2C)cc1 (stereo not drawn) | > | 19.6
Oc1ccc(-c2nc3ccc4[nH]ncc4c3c3c2CCCC3)c(F)c1 | = | 10.7
Cn1nc(-c2ccc(Cl)cc2)nc2c(=O)n(C)c(=O)nc1-2 | = | 2.23
CCC(c1ccc(OC)cc1)C(CC)c1ccc(O)c(CN2CCN(C)CC2)c1 (stereo not drawn) | = | 9.5
O=[N+]([O-])c1ccc(C2CC(c3ccccc3Cl)=Nc3ccccc3S2=O)cc1 (stereo not drawn) | = | 4.19
COC(=O)CCc1ccc2c(c1)C(=O)CC2 | > | 100
Fc1ccc(N=C/C=C/Nc2ccc(F)cc2)cc1 | = | 52
O=C(CN1CCN(c2cc3c(cc2F)c(=O)c(C(=O)O)cn3C2CC2)CC1)Nc1nc(-c2ccc(Cl)cc2)cs1 | > | 100
CCCCCc1cc2cc3c(c(O)c2c(=O)[nH]1)C1(CCC3)C(O)=c2c(=O)c3c(=O)cc(OC)c(=O)c=3c(=O)c2=C1O (stereo not drawn) | > | 18.7

---

Collected TGI values appear next to each entry.
Test system: RXF-631 renal
Test: NCI tumour cell line growth inhibition, 48 h

compound | TGI
O=S(OC12CC3CC(CC(C3)C1)C2)c1cc(Cl)cc(Cl)c1OCc1ccccc1 (stereo unspecified) | > 100 µM
CCCCC(C)C(OC(=O)CC(CC(=O)O)C(=O)O)C(CC(C)CC(O)CCCCC(O)CC(O)C(C)N)OC(=O)CC(CC(=O)O)C(=O)O (stereo unspecified) | > 100 µM
O=C(CCC(=O)Nc1ccc(Cl)c(Cl)c1)CC(=O)c1ccc(F)cc1 | > 100 µM
COC(=O)C1=C(c2ccc(OC)c(OC)c2)OC(c2cc(OC)c(OC)c(OC)c2)C1 (stereo unspecified) | > 100 µM
O=C1C=CC(=C(c2ccc(O)cc2)c2ccc(O)cc2)C=C1 | 29.6 µM
CN(C)c1nnnn1-c1c(N)n(C)c(=O)n(C)c1=O | > 100 µM

---

Tested on: A498 renal
Assay: NCI tumour cell line growth inhibition, 48 h
measurement label: GI50

compound | measurement label | result
FC(F)(F)c1ccc(-c2cnc(-n3cc(COCCN4CCCCC4)nn3)nc2NC2CCCCCC2)cc1 | GI50 | 3.56 µM
COc1cccc(-c2ccc3c(c2)C2CCN(Cc4ccccc4)C3C2)c1 (centres undefined) | GI50 | 3.77 µM
CCOc1cc(Br)c(C(C)NC(=O)c2cccc(OC)c2)cc1OCC (centres undefined) | GI50 | 0.866 µM
CCCCCCNC(=O)Oc1ccc(/C(=C(/C)Cc2ccc(OC)cc2)c2ccc(OCCCN(C)C)cc2)cc1 | GI50 | 14.1 µM

---

Test system: COLO 205 colon
Assay: NCI tumour cell line growth inhibition, 48 h
Class 1.0: TGI at least 30 µM. Class 0.0: TGI below 30 µM.

compound | label
CNC(=S)N/N=C(\C(=N/NC(=S)NC)c1ccccn1)c1ccccn1 | 1.0
O=c1cc(NNc2cccc(F)c2)[nH]c(=O)[nH]1 | 1.0
CN(COC(=O)c1ccccc1)c1nc(N(C)COC(=O)c2ccccc2)nc(N(C)COC(=O)c2ccccc2)n1 | 1.0
COc1cc(OC)c2nccc(NCCCN(C)C)c2c1[N+](=O)[O-] | 1.0
COc1cccc(-c2nn(-c3ccccc3)cc2-c2ccnc(NCCNC(=O)Nc3cccc(C(F)(F)F)c3)c2)c1 | 0.0
CC(=O)NC1C(OCc2ccccc2)OC(CO)C(O)C1OC(C)C(=O)N[C@@H](C)C(=O)N[C@H](CCC(=O)OCCNc1c2ccccc2nc2cccc([N+](=O)[O-])c12)C(N)=O (some centres undefined) | 0.0
Cc1ccc(NC(=O)C2C(=O)N(c3ccc(C)c(C)c3)C(=O)/C2=N\NC(N)=O)cc1C (centres undefined) | 1.0
CCC/C=C1\CCC(CN(C)C)C1=O (centres undefined) | 0.0
CCCCCCCCCCCCc1ccc(S(=O)(=O)O)cc1.[Zn+2] | 1.0
CSc1c(C#N)c(N)nc2c(N=Nc3ccc(Br)cc3)c(N)nn12 | 0.0
O=[N+]([O-])c1ccc(C(Nc2ccccc2)P(c2ccccc2)c2ccccc2)cc1 (centres undefined) | 1.0
COc1ccc(/C=c2\sc3n(c2=O)C2C(NN=3)N(C)C(=O)N2C)cc1 (centres undefined) | 1.0
COP(=O)(OC)C(NC(=O)C(F)(F)F)(c1ccccc1)C(F)(F)F (centres undefined) | 1.0
NC1=NC(c2ccc(Cl)cc2)N(c2ccc(S(N)(=O)=O)cc2)C(N)=N1 (centres undefined) | 1.0
O=C(CCC(=O)CC(O)(C(F)(F)F)C(F)(F)F)CC(O)(C(F)(F)F)C(F)(F)F | 1.0
Nc1nc(N)c(C=Nc2ccc(Br)cc2)c(Nc2ccc(Br)cc2)n1 | 1.0
NC(=O)c1ccccc1NC(=O)C(=O)Cc1nc2ccccc2[nH]c1=O | 1.0
ON(Cc1ccccc1)C(=S)c1ccccc1 | 1.0
O=[N+]([O-])c1ccc(Cl)c(C2CC(c3cccc4ccccc34)=Nc3ccccc3S2)c1 (centres undefined) | 1.0
CCO[C@@]1(COCc2ccccc2)OC(=O)C[C@@H]1N1C(=O)OC[C@@H]1c1ccccc1 | 1.0
COc1ccc(/C=C/C(=O)c2cc(C(C)(C)C)c(O)c(C(C)(C)C)c2)cc1OC | 1.0
O=C1C=C2SC3C[C@@]24CC1[N+]1=c2c4c(c(O)c4c2=C(C=N4)CC1)N3 | 0.0
NC(=O)c1c([N+](=O)[O-])cc(C(F)(F)F)cc1[N+](=O)[O-] | 1.0
CCC(c1ccc(OC)cc1)C(CC)c1ccc(O)c(CN2CCN(C)CC2)c1 (centres undefined) | 0.0
COC(=O)[C@H]1NC(=O)CCSSC1(C)C | 1.0
CC(=O)OC(Cc1ccc2ccccc2n1)(C(F)(F)F)C(F)(F)F | 0.0
Cc1ccc(C(=O)N(Cc2ccccc2)Cc2ccccc2)cc1N=NN(C)C | 1.0
C(=N\Nc1ccc(-c2nc3ccccc3[nH]2)cc1)/c1c(-c2ccc(Cc3ccccc3)cc2)[nH]c2ccccc12 | 0.0
Cc1ccc(/C=C2\CN(C(=O)C(Cl)Cl)C/C(=C\c3ccc(C)cc3)C2=O)cc1 | 0.0
COC(=O)CCC1CCc2c(OC)ccc(OC)c2C1=O (centres undefined) | 1.0
CCOC(=O)C(CC(C)C)NC(=O)CSc1nnc(COc2ccc(Cl)cc2)n1-c1ccccc1 (centres undefined) | 1.0
O=S(=O)(O)c1ccc(N=Nc2nc(C(F)(F)F)c(C(F)(F)F)[nH]2)cc1 | 1.0
COc1cccc(CSCC(=O)O)c1 | 1.0
COC(=O)C1=C(OC(=O)/C=C/c2ccccc2)C(C(=O)OC)[C@@]2(O)[C@@H](C(=O)OC)[C@H](C)C[C@@H]1[C@@H]2C(=O)OC (some centres undefined) | 1.0
Cn1nc(-c2ccc(Cl)cc2)nc2c(=O)n(C)c(=O)nc1-2 | 0.0
Cc1ccc(-c2c3c(nn2-c2ccc(S(N)(=O)=O)cc2)-c2ccccc2C3)cc1 | 1.0
